assay: in vivo; conditions: mouse, po

| SMILES_INPUT | LD50 (mg/kg) |
| --- | --- |
| Br.Cn1cc2n(c1=N)-c1ccccc1Cc1ccccc1-2 | 280 |

Data provenance is patent US4503060A.
